- Measurement Target: sGC α1/β1 heterodimer (Homo sapiens, UniProt Q02108+Q02153)
- Construct: expressed in transfected cells; host or cells: CHO-K1 (clone #7, CHO-K1/sGC)
- Sequence (Q02108 whole entry): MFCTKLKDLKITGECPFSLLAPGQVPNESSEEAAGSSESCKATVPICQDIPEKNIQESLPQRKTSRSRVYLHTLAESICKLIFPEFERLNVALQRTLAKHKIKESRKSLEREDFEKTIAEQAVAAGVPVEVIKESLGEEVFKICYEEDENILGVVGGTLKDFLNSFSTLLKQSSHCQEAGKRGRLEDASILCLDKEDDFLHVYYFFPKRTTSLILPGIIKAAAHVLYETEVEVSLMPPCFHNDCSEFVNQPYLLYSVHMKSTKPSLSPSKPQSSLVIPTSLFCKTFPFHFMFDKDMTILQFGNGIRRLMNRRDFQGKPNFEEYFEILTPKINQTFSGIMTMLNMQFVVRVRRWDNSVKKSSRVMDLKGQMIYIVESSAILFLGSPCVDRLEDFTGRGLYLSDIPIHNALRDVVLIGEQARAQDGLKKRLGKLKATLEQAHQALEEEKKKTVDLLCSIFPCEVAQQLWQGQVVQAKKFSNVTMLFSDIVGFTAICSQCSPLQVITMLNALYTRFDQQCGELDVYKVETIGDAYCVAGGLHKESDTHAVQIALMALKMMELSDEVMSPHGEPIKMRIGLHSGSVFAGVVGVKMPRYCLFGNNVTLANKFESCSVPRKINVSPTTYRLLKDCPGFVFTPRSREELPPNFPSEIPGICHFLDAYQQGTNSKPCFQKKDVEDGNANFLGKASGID
- Sequence (Q02153 whole entry): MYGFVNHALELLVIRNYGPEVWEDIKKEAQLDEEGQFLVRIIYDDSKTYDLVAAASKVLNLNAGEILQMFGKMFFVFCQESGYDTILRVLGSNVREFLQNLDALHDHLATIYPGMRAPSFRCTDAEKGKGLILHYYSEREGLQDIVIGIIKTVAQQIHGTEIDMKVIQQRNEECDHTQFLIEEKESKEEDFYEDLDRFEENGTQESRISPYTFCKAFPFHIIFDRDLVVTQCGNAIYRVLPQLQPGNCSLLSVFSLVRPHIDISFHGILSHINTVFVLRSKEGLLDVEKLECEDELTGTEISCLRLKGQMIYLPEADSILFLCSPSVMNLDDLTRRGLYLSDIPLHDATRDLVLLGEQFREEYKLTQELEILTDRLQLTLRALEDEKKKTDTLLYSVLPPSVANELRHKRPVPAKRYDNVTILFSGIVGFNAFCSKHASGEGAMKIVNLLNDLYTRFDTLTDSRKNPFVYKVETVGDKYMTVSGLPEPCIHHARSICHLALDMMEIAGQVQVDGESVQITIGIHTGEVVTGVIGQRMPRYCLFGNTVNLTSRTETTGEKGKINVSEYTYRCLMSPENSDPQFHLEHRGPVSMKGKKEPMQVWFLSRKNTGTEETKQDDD
- Test Protocol: Cell-based sGC functional assay (CASA assay): cGMP generation in CHO-K1/sGC cells, HTRF detection
- Test Settings: percent activation relative to standard Compound A in CHO-K1/sGC cells
- Procedure: Biological Assay 1: Cell-Based sGC Functional Assay (CASA Assay) sGC is a heme-containing enzyme that converts GTP to secondary messenger cGMP. […] A CHO-K1 cell line stably expressing the sGC α1/β1 heterodimer was generated using a standard transfection protocol. […] The level of intracellular cGMP was determined using an HTRF-based assay kit (CisBio, 62GM2PEC), which detects the displacement of a fluorescence labeled cGMP from its specific antibody. […]
Outcome Measure: % Act. (%)
Reply with just the number (in %).

As a guide, the following entries are already answered.
Nc1nc(-c2cn3ccnc3c(Cc3ccccc3)n2)nc2c1C(C(=O)NC1CC1)(C1CC1)C(=O)N2 (single isomer, unassigned) [Example 40A] = 138
Nc1nc(-c2cn3ccnc3c(Cc3cccc(F)c3)n2)nc2c1C(C(=O)NC1CC1)(C1CC1)C(=O)N2 (single isomer, unassigned) [Example 38A] = 124
CC1(c2ccc(F)cc2)C(=O)Nc2nc(-c3cn4ccnc4c(Cc4cccc(F)c4)n3)nc(N)c21 (single isomer, unassigned) [Example 90B] = 129

In the following, a different molecule is considered.
-- ask Any idea what % Act. was measured for CC1(C(=O)NC2CC2)C(=O)Nc2nc(-c3cn4ccnc4c(Cc4cccc(F)c4)n3)nc(N)c21 (single isomer, unassigned) [Example 36A] ?
-- reply 151
